# target entity: Galactokinase (Homo sapiens) (UniProt P51570)
# Sequence (P51570 whole entry, looked up): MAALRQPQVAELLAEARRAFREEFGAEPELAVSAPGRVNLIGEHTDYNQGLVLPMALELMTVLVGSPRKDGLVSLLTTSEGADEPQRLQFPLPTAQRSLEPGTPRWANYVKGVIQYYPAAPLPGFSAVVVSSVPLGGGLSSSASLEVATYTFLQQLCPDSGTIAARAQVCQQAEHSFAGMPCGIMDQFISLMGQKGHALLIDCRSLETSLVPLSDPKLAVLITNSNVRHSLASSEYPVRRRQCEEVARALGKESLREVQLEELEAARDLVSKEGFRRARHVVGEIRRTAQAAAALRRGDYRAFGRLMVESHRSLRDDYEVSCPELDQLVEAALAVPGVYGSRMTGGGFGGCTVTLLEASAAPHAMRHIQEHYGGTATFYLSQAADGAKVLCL
# test method notes: qHTS for Inhibitors of Human Galactokinase (GALK): SAR round 3
# conditions: ADP detection luminescence, 1 h; series mostly up to 57.5 µM
Inconclusive results are not listed. The source made the active and inactive calls. Calls come from the whole dose curve; as a rule, active = well fitted inhibition curve with a large enough effect; inconclusive = small, poorly fitted or top-dose-only effect; inactive = flat fitted curve, though single readings scatter.
Pick one and only one: y (active), n (inactive)

In: Assay result, entry CC1=C(C(=O)Nc2nncs2)C(c2nn(C)cc2Cl)N=C(Nc2nc3ccccc3o2)N1 (stereo unspecified) — outcome?
Out: y

In: Entry Cn1cc(Br)c(C2N=C(Nc3nc4ccccc4o3)NC3=C2C(=O)CCC3)n1 (stereo unspecified) please
Out: y

In: And the next one, Cc1ccc2nc(NC3=NC(c4[nH]ncc4Cl)C4=C(CCCC4=O)N3)oc2c1 (stereo unspecified) ?
Out: n

In: Now the same for CC(=O)Nc1ncc(S(=O)(=O)N2CCOCC2)s1
Out: n

In: Would you kindly repeat that for O=C1CCCC2=C1C(c1[nH]ncc1Cl)N=C(Nc1nc3ccc(F)cc3o1)N2 (stereo unspecified) ?
Out: n

In: Again, but for CCCc1ccc(NC(=O)c2ccc3c(c2)NC(=O)CS3)cc1
Out: n

Taken from PubChem BioAssay AID720664.
